- Tested on: IGROV1 ovarian
- experimental-protocol: NCI tumour cell line growth inhibition, 48 h
measurement-label: TGI

compound=CC1(N)CCN(c2cnc(-c3cccc(Cl)c3Cl)c(N)n2)CC1 target_or_system="IGROV1 ovarian" measurement_label=TGI result="> 100 µM"
compound=Cc1cccc(C(C)(C)C)c1NC(=O)CCc1nc(=S)[nH][nH]1 target_or_system="IGROV1 ovarian" measurement_label=TGI result="> 100 µM"
compound=Cc1cc(-c2ccccn2)cc(C)c1/C=C/c1cncc(-c2nn[nH]n2)c1 target_or_system="IGROV1 ovarian" measurement_label=TGI result="> 25 µM"
compound=OCc1cc2ccncc2c2c1[nH]c1ccccc12 target_or_system="IGROV1 ovarian" measurement_label=TGI result="17.1 µM"
compound="CC(=O)O[C@@]12CO[C@@H]1C[C@@H](O)[C@@]1(C)C(=O)[C@H](O)C3=C(C)[C@@H](OC(=O)[C@H](O)[C@@H](NC(=O)c4ccccc4)c4ccccc4)C[C@@](O)([C@@H](OC(=O)c4ccccc4)C12)C3(C)C (some centres undefined)" target_or_system="IGROV1 ovarian" measurement_label=TGI result="> 100 µM"
compound=COc1cc(-c2csc(NC(=O)Nc3ccc(C(F)(F)F)cc3)n2)cc(OC)c1OC target_or_system="IGROV1 ovarian" measurement_label=TGI result="13.5 µM"
compound="CC(=O)OCC(C)(COC(C)=O)N1C(=O)C2C3c4ccccc4C(c4ccccc43)C2C1=O (centres undefined)" target_or_system="IGROV1 ovarian" measurement_label=TGI result="> 100 µM"
compound=CN(CC(=O)Nc1nc2ccccc2[nH]1)S(=O)(=O)c1ccc(Cl)cc1 target_or_system="IGROV1 ovarian" measurement_label=TGI result="> 100 µM"
compound=CCN(CC)Cc1ccc(C(=S)Nc2ccc(C)cc2)s1 target_or_system="IGROV1 ovarian" measurement_label=TGI result="26.2 µM"

---

- Tested on: T-47D breast
- experimental-protocol: NCI tumour cell line growth inhibition, 48 h; in the data active = GI50 below about 0.43 µM; inactive = the rest
Possible outcomes: active, inactive

molecule="CC(CN(C)C)Oc1ccccc1NC1=C(Cl)C(=O)C(Nc2ccccc2OC(C)CN(C)C)=C(Cl)C1=O (stereo not given)" answer_label=active
molecule=CN(CC(=O)Nc1nc2ccccc2[nH]1)S(=O)(=O)c1ccc(Cl)cc1 answer_label=inactive
molecule=CC1(N)CCN(c2cnc(-c3cccc(Cl)c3Cl)c(N)n2)CC1 answer_label=inactive
molecule="Nc1ccc(-c2cccs2)cc1NC(=O)c1ccc(CCCC(=O)Nc2ccc(C3CC3N)cc2)cc1 (stereo not given)" answer_label=inactive
molecule=Cc1ccc(NC(=O)CSc2nnc3n(Cc4ccccc4)c(=O)c4c(C)c(C(N)=O)sc4n23)cc1 answer_label=inactive

---

- Test system: A498 renal
- experimental-protocol: NCI tumour cell line growth inhibition, 48 h
Recorded TGI, one value per entry.
measurement-label: TGI

molecule="C=C1C(OC(=O)/C=C/c2ccccc2)CC(OC(C)=O)C2(C)C1CC1CC(OC(C)=O)C(C)=C(C(OC(C)=O)C2OC(C)=O)C1(C)C (stereo not drawn)" measurement_label=TGI result="> 100 µM"
molecule=[N-]=[N+]=NCCCn1c2c(c3ccc([N+](=O)[O-])cc3c1=O)C(=O)c1cc(F)ccc1-2 measurement_label=TGI result="72.2 µM"
molecule="CSc1nc2c(c(N3CCOCC3)n1)C(O)n1c(nc3ccccc31)S2 (stereo not drawn)" measurement_label=TGI result="> 100 µM"
molecule=CCN(CCCl)c1cc(CN(C)C)cc(NC(=O)C23CCC(C(=O)Nc4cc(CN(C)C)cc(N(CC)CCCl)c4)(CC2)CC3)c1 measurement_label=TGI result="20.2 µM"
molecule=O=C(O/N=C1/CCC/C1=C\c1ccccc1)c1ccc(Cl)c(Cl)c1 measurement_label=TGI result="> 100 µM"
molecule=CCN(CC)C(=S)SCN1C(=O)c2ccccc2S1(=O)=O measurement_label=TGI result="> 100 µM"
molecule=O=c1cc(N=Nc2ccc(Cl)c(Cl)c2)[nH]c(=O)[nH]1 measurement_label=TGI result="28.8 µM"
molecule="CC(=O)OCC1OC(O[C@@H]2C[C@H]3C(C)(C)[C@@H](OC(C)=O)CC[C@]3(C)[C@H]3CC[C@]45C[C@]4(CC[C@H]5[C@@H](C)C[C@@H](O)[C@H](O)C(C)(C)F)[C@@]32C)C(O)C(O)C1O (stereo partly drawn)" measurement_label=TGI result="76.5 µM"
molecule="O=C(CC(=O)c1cccc2ccccc12)C(=O)NC1C2CC3CC(C2)CC1C3 (stereo not drawn)" measurement_label=TGI result="> 100 µM"
molecule=O=NNc1ccc(Sc2ccc(NN=O)cn2)nc1 measurement_label=TGI result="> 100 µM"
molecule=O=C1/C(=C/c2ccc(Oc3ccccc3)cc2)N=C(c2ccccc2)N1c1ccc(S(=O)(=O)Nc2nccs2)cc1 measurement_label=TGI result="82 µM"
molecule=CCOC(=O)c1c(C)n([O-])c2cc(Cl)c(Cl)cc2[n+]1=O measurement_label=TGI result="58 µM"
molecule="COC(=O)C1Cc2ccc3c(c2C1=O)CCCC3 (stereo not drawn)" measurement_label=TGI result="> 100 µM"
molecule=CC(=O)O[C@H](C[C@H](C(C)C)N(C)C(=O)[C@@H](NC(=O)[C@H]1CCCN1C)C(C)C)c1nc(C(=O)N[C@@H](Cc2ccccc2)C[C@H](C)C(=O)O)c(C)s1 measurement_label=TGI result="0.00956 µM"
molecule="CCOC(OCC)N1C(=O)C2(C(OCC)OCC)CC3C(OC(=O)N3N)c3cccc1c32 (stereo not drawn)" measurement_label=TGI result="> 100 µM"
molecule="CSC(=S)OC1CC(n2cnc3c(NC(=O)c4ccccc4)ncnc32)OC1CO[Si](C)(C)C(C)(C)C (stereo not drawn)" measurement_label=TGI result="> 31.6 µM"
molecule="O=c1[nH]c(=O)n(C2CC(O)C(CO)O2)c2nc3ccc4cc5ccccc5cc4c3nc12 (stereo not drawn)" measurement_label=TGI result="> 100 µM"
molecule=N#Cc1c(N)nc(N2CCOCC2)c(C#N)c1-c1ccccn1 measurement_label=TGI result="> 100 µM"

---

- System: SK-OV-3 ovarian
- experimental-protocol: NCI tumour cell line growth inhibition, 48 h
measurement-label: TGI

molecule=CN(C(=O)C1=CCC2(CC1)OCCO2)c1ccccc1I result="> 100 µM"
molecule=CCN(CC)Cc1ccc(C(=S)Nc2ccc(C)cc2)s1 result="31.1 µM"
molecule="COC(=O)C12OCC34C(CC5C(C)C6=CC(=O)OC6=CC5(C)C3C(O)C1O)OC(=O)C(O)C24 (stereo unspecified)" result="24.6 µM"
molecule="O=C(NC(Cc1cnc[nH]1)C(=O)N1CCCC1)C1CCCC1 (stereo unspecified)" result="> 100 µM"
molecule="O=C(c1ccccc1)C1C(c2ccccc2)N1S(=O)(=O)c1ccccc1 (stereo unspecified)" result="> 100 µM"
molecule=COc1cccc(Nc2nc(N)nc(N)c2N)c1 result="> 100 µM"
molecule=CN(C)c1snc2c1c(=O)n(C)c(=O)n2C result="> 100 µM"
molecule="Cc1ccc(OCC2OC(n3cnc4c(Cl)nc(Cl)nc43)CC2Oc2ccc(C)cc2)cc1 (stereo unspecified)" result="35.9 µM"
molecule=COC(=O)C1=C(C)NC(C)=C(C(=O)OC)C1c1ccc(N=O)cc1 result="25.5 µM"
molecule="COc1cc2c(cc1OC)CC1c3cc(OC)c(OC)cc3CCN1CC2 (stereo unspecified)" result="> 100 µM"
molecule=O=C1NC(N2CCCCC2)=N/C1=C\c1ccc(Cl)cc1 result="> 100 µM"

---

- Tested on: SF-268 CNS
- experimental-protocol: NCI tumour cell line growth inhibition, 48 h
The compounds listed here are annotated with their TGI.
measurement-label: TGI

compound=Cc1cc(N2CCOCC2)nc(N(CCCNc2ccnc3cc(Cl)ccc23)Cc2ccco2)n1 target_or_system="SF-268 CNS" result="16.1 µM"
compound=OC(c1ccc2c(c1)OCO2)c1ccc2c(c1)OCO2 target_or_system="SF-268 CNS" result="> 100 µM"
compound=Cc1cc(-c2ccccn2)cc(C)c1/C=C/c1cncc(-c2nn[nH]n2)c1 target_or_system="SF-268 CNS" result="> 25 µM"
compound=COC(=O)c1cc2c3ccccc3[nH]c2c2sccc12 target_or_system="SF-268 CNS" result="> 100 µM"
compound="O=C1c2ccccc2C2C1C(c1ccccc1)C1(Cc3ccccc3C1=O)C2c1ccccc1 (stereo not given)" target_or_system="SF-268 CNS" result="> 100 µM"
compound=Cc1nc2[nH]ncn2c(=O)c1CCCl target_or_system="SF-268 CNS" result="> 10 µM"
compound="ONC1=Nc2ccccc2C(=S)N2CSCC12 (stereo not given)" target_or_system="SF-268 CNS" result="> 100 µM"
compound=O=C(NO)[C@@H](Cc1ccccc1)NS(=O)(=O)c1ccc(-c2ccccc2)cc1 target_or_system="SF-268 CNS" result="> 25 µM"
compound="O=C(c1ccccc1)C1C(c2ccccc2)N1S(=O)(=O)c1ccccc1 (stereo not given)" target_or_system="SF-268 CNS" result="> 100 µM"
compound="CC(NC(=O)c1ccc(NP(=O)(OCc2ccc([N+](=O)[O-])o2)N(C)CCCCCl)cc1)c1ccc(OCC2CCCCC2)c(C(N)=O)c1 (stereo not given)" target_or_system="SF-268 CNS" result="36.1 µM"

Attribution: PubChem BioAssay (NCI)
